Tgt: T1, human vascular endothelial growth factor receptor-2 Fc chimera (KDR-Fc) (human, UniProt P35968 20-764)
T1 construct: range 1-764; also called human VEGFR-2; hKDR; not shown: human IgG1 Fc
Assay Overview: binding to 1 nM KDR-Fc, % of input; radioactive equilibrium binding (assay not given)
Measurement Kind: Binding to 1 nM KDR, % (%)

Binder	Binding to 1 nM KDR, % [%]
K7 (designed binder, Del 1-8 10Fn3 clone; Flag tag of the assay form not included) EVVAATPTSLLISWRHPHFPTRYYRITYGETGGNSPVQEFTVPLQPPTATISGLKPGVDYTITGYAVTSGHNDHMLMIPISINYRT	40
E23 (designed binder, Del 1-8 10Fn3 clone; Flag tag not included) EVVAATPTSLLISWRHHPHFPTRYYRITYGETGGNSPVQEFTVPLQPPTATISGLKPGVDYTITGYAVTVHWNGRELMTPISINYRT	36
E29 (designed binder, Del 1-8 10Fn3 clone; Tags not included) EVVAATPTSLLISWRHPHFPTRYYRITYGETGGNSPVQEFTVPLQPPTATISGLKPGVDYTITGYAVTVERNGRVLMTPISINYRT	41
